Data origin, for the record: patent US20180318311A1

Target or system E. faecalis ATCC 29212 (NB04001): recorded MIC listed per item.

Reported MIC for E. faecalis ATCC 29212 (NB04001), given C[C@H](N)[C@@H]1CCN(c2ccc3cc(C(=O)O)c(=O)n4c3c2OC[C@@H]4C)C1 ?
< 1 µg/mL

Lab note: need MIC for C[C@H]1COc2c(N3CCC(F)(CN)C3)c(F)cc3cc(C(=O)O)c(=O)n1c23 (some centres unmarked) on E. faecalis ATCC 29212 (NB04001), anyone have it?
1 to 32 µg/mL

Please provide the recorded MIC for CNC1([C@@H]2CCN(c3c(F)cc4cc(C(=O)O)c(=O)n5c4c3OC[C@@H]5C)C2)CC1 , tested on E. faecalis ATCC 29212 (NB04001).
1 to 32 µg/mL

Hi! What's the reported MIC for C[C@@H]1COc2c(N3CC[C@@H](C4(N)CC4)C3)c(F)cc3cc(C(=O)O)c(=O)n1c23 on E. faecalis ATCC 29212 (NB04001)?
> 32 µg/mL

# get_value(readout= MIC, system= E. faecalis ATCC 29212 (NB04001)) for C[C@H](N)[C@@H]1CCN(c2c(F)c(F)c3cc(C(=O)O)c(=O)n4c3c2OC[C@@H]4C)C1
< 1 µg/mL

E. faecalis ATCC 29212 (NB04001) / MIC / C[C@H]1COc2c(N3CCN(C)CC3)c(F)cc3cc(C(=O)O)c(=O)n1c23 : value?
> 32 µg/mL

Can you look up MIC on E. faecalis ATCC 29212 (NB04001) for C[C@H]1COc2c(N3CCCC4(CCNC4)C3)c(F)cc3cc(C(=O)O)c(=O)n1c23 (mixture of isomers) ?
> 32 µg/mL

Value wanted: MIC (E. faecalis ATCC 29212 (NB04001)) of entry C[C@H]1COc2c(N3C4CCC3CC4)c(F)cc3cc(C(=O)O)c(=O)n1c23
> 32 µg/mL

Under E. faecalis ATCC 29212 (NB04001): MIC value of CC(N)C1(F)CCN(c2c(F)cc3cc(C(=O)O)c(=O)n4c3c2OC[C@@H]4C)C1 (single isomer, unassigned) ?
1 to 32 µg/mL

Record lookup: for E. faecalis ATCC 29212 (NB04001), what MIC belongs to C[C@H]1COc2c(N3CC(N)C(CO)C3)c(F)cc3cc(C(=O)O)c(=O)n1c23 (single isomer, unassigned) ?
> 32 µg/mL

Record lookup: for E. faecalis ATCC 29212 (NB04001), what MIC belongs to C[C@H]1COc2c(N3CCC(N)(CO)CC3)c(F)cc3cc(C(=O)O)c(=O)n1c23 ?
> 32 µg/mL

Could you share what MIC was measured for C[C@H]1COc2c(N3CC[C@@H](C4(N(C)C)CC4)C3)c(F)cc3cc(C(=O)O)c(=O)n1c23 , tested on E. faecalis ATCC 29212 (NB04001)?
1 to 32 µg/mL

Any idea what MIC came out for C[C@H](N)[C@@H]1CCN(c2c(F)c(Cl)c3cc(C(=O)O)c(=O)n4c3c2OC[C@@H]4C)C1 on E. faecalis ATCC 29212 (NB04001)?
< 1 µg/mL

----------
Here we list compounds with their recorded MIC when tested on E. faecalis ATCC 29212 (NB04001).
Where a name gives a salt, the structure may show the parent alone.

Here is how some compounds turned out for MIC.
compound="C[C@H]1COc2c(N3CC[C@@H](C4(N)CC4)C3)cc(F)c3cc(C(=O)O)c(=O)n1c23 [Example 12.1, trifluoroacetate salt]" resultvalue="< 1 µg/mL"
compound="NC1([C@@H]2CCN(c3c(F)cc4cc(C(=O)O)c(=O)n5c4c3OCC5)C2)CC1 [Example 1.20]" resultvalue="1 to 32 µg/mL"
compound="C[C@H]1COc2c(N3CCN4C5CCC(C5)C4C3)c(F)cc3cc(C(=O)O)c(=O)n1c23 (stereo partly shown) [Example 1.63]" resultvalue="> 32 µg/mL"
compound="C[C@H]1COc2c(N3CCC(CNC4CC4)C3)c(F)cc3cc(C(=O)O)c(=O)n1c23 (mixture of isomers) [Example 1.11]" resultvalue="1 to 32 µg/mL"
compound="C[C@H]1COc2c(N3CC[C@@H](C4(N)CCC4)C3)c(F)c(F)c3cc(C(=O)O)c(=O)n1c23 [Example 13.8]" resultvalue="< 1 µg/mL"
compound="C[C@H]1Cn2c(=O)c(C(=O)O)cc3cc(F)c(N4CC[C@@H](C5(N)CC5)C4)c(c32)O1 [Example 1.23]" resultvalue="> 32 µg/mL"

Find MIC (E. faecalis ATCC 29212 (NB04001)) for the entry C[C@H]1COc2c(N3CC4C(C3)C4N(C)C)c(F)cc3cc(C(=O)O)c(=O)n1c23 (mixture of isomers) [Example 1.69]
> 32 µg/mL

----------
MIC by entry:
test system: E. faecalis ATCC 29212 (NB04001)
Structures can show the parent of a compound that is named as a salt.

Use the examples below as a reference point.
compound="C[C@H]1COc2c(N3CCC4(CC3)CNC4)c(F)cc3cc(C(=O)O)c(=O)n1c23 [Example 1.17]" resultvalue="> 32 µg/mL"
compound="Cc1c(F)c(N2CC[C@@H](C3(N)CC3)C2)c2c3c1cc(C(=O)O)c(=O)n3[C@@H](C)CO2 [Example 22]" resultvalue="< 1 µg/mL"
compound="C[C@H]1COc2c(N3CC[C@@H](C4(N)CCCC4)C3)c(F)cc3cc(C(=O)O)c(=O)n1c23 [Example 1.75]" resultvalue="1 to 32 µg/mL"
compound="C[C@H]1COc2c(N3CC[C@@H](C4(N)CC4)C3)c(F)c(C#N)c3cc(C(=O)O)c(=O)n1c23 [Example 21.1, trifluoroacetate salt]" resultvalue="< 1 µg/mL"
compound="C[C@H](N)[C@@H]1CCN(c2c(F)cc3cc(C(=O)O)c(=O)n4c3c2OC[C@@H]4C)C1 [Example 1.5]" resultvalue="< 1 µg/mL"
compound="COC[C@H]1COc2c(N3CC[C@@H](C4(N)CC4)C3)c(F)cc3cc(C(=O)O)c(=O)n1c23.O=CO [Example 3]" resultvalue="> 32 µg/mL"
compound="C[C@H]1COc2c(N3CCC(=C(Cl)CO)CC3)c(F)cc3cc(C(=O)O)c(=O)n1c23 [Example 1.8]" resultvalue="< 1 µg/mL"
compound="C[C@H]1COc2c(N3CC4CCCC4(CN)C3)c(F)cc3cc(C(=O)O)c(=O)n1c23 (single isomer, unassigned) [Example 1.50]" resultvalue="1 to 32 µg/mL"
compound="CC[C@H]1COc2c(N3CC[C@@H](C4(N)CC4)C3)c(F)cc3cc(C(=O)O)c(=O)n1c23 [Example 1.19]" resultvalue="1 to 32 µg/mL"
compound="CN[C@@H](C)[C@@H]1CCN(c2c(F)cc3cc(C(=O)O)c(=O)n4c3c2OC[C@@H]4C)C1 [Example 1.36]" resultvalue="< 1 µg/mL"

Record lookup: for E. faecalis ATCC 29212 (NB04001), what MIC belongs to C[C@H]1COc2c(N3CCC4(CC3)CC(N)C4)c(F)cc3cc(C(=O)O)c(=O)n1c23 [Example 1.30] ?
1 to 32 µg/mL

Checklist item: MIC tested on E. faecalis ATCC 29212 (NB04001), entry C[C@H](N)[C@@H]1CCN(c2cc(F)c3cc(C(=O)O)c(=O)n4c3c2OC[C@@H]4C)C1 [Example 12.2] , value?
< 1 µg/mL

Identify the measured MIC of C[C@H]1COc2c(N3CCNC4(CC3)CC4)c(F)cc3cc(C(=O)O)c(=O)n1c23 [Example 1.55] for E. faecalis ATCC 29212 (NB04001).
1 to 32 µg/mL

Query for E. faecalis ATCC 29212 (NB04001): what MIC does the record show for C[C@H]1COc2c(N3CC[C@@H](C(C)(C)O)C3)c(F)cc3cc(C(=O)O)c(=O)n1c23 [Example 1.34] ?
> 32 µg/mL

----------
Each item that follows carries a reported MIC.
test system: E. faecalis ATCC 29212 (NB04001)

Some solved cases for reference:
molecule="CCc1c(F)c(N2CC[C@@H](C3(N)CC3)C2)c2c3c1cc(C(=O)O)c(=O)n3[C@@H](C)CO2 [Example 23]" resultvalue="1 to 32 mg/L"
molecule="C[C@H]1COc2c(N3CC[C@@H]([C@@H](N)C4CC4)C3)c(F)cc3cc(C(=O)O)c(=O)n1c23 [Example 1.52]" resultvalue="< 1 mg/L"
molecule="C[C@H]1COc2c(N3CC(CC4(N)CC4)C3)c(F)cc3cc(C(=O)O)c(=O)n1c23 [Example 1.76]" resultvalue="> 32 mg/L"
molecule="C[C@H]1COc2c(N3CCN4CCC3C4)c(F)cc3cc(C(=O)O)c(=O)n1c23 (stereo partly shown) [Example 1.60]" resultvalue="1 to 32 mg/L"
molecule="C[C@H]1CNc2c(N3CC[C@@H](C4(N)CC4)C3)c(F)cc3cc(C(=O)O)c(=O)n1c23.Cl [Example 10]" resultvalue="1 to 32 mg/L"
molecule="C[C@H]1COc2c(N3CC(CN)C4(CCC4)C3)c(F)cc3cc(C(=O)O)c(=O)n1c23 (single isomer, unassigned) [Example 1.49]" resultvalue="< 1 mg/L"

Form: Entry = C[C@H]1COc2c(N3CC[C@H](C4(N)CC4)C3)c(F)cc3cc(C(=O)O)c(=O)n1c23 [Example 1.35] | System = E. faecalis ATCC 29212 (NB04001) | MIC = ____
1 to 32 mg/L
